tested on: L1210 leukemia ip in BDF1 mice, survival T/C; assay: NCI In Vivo Anticancer Drug Screen. Data for tumor model L1210 Leukemia (intraperitoneal) in B6D2F1 (BDF1) mice; settings: endpoint: mean survival time; dose: 400.0 mg/kg/injection; schedule: Q01DX001 (ip); vehicle: saline
Inconclusive results and toxic doses are left out. Cut-off read from the data, not from the text of the source: active = T/C of 150% or more; inactive = T/C below 125%.
The reply should name one outcome from Yes for active, No for inactive

molecule: COc1nc(N)nc2nc(N)c(-c3ccc(N(CCO)CCO)cc3)nc12
answerLabel: No
--
molecule: CC(CCN(CC(=O)O)CC(=O)O)N(CC(=O)O)CC(=O)O (stereo not drawn)
answerLabel: No

Attention now turns to another entry.
Input line: Identify the outcome logged in this assay for the molecule shown: Oc1ccc(N=Cc2ccccc2O)cc1
Output line: Yes
